# experimentalSystem: Calpain-1 catalytic subunit (Homo sapiens, UniProt P07384)
# Sequence (P07384 whole entry): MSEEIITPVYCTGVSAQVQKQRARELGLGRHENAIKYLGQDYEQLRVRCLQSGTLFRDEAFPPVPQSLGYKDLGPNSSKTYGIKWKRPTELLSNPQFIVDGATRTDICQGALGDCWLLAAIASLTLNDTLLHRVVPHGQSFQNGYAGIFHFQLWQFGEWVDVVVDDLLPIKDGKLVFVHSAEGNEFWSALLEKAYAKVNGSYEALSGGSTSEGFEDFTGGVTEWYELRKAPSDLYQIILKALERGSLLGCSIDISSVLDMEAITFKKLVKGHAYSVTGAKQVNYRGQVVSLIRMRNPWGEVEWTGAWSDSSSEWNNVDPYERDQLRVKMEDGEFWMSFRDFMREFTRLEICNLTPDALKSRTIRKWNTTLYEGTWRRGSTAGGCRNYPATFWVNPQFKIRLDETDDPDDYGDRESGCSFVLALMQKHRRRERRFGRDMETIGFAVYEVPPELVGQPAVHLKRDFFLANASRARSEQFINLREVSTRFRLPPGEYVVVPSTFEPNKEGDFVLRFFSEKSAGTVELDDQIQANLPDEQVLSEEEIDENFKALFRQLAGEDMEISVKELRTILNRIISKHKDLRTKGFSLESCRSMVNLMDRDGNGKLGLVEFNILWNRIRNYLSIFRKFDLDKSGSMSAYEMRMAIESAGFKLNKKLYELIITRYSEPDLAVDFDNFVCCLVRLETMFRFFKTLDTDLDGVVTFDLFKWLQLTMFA
# experimentalDetails: The binding affinity against calpain.
pKi: −log10 of the molar value.

{"columns": ["chemicalStructure", "pKi"],
 "data": [
  ["CCCC[C@@H](C=O)NC(=O)[C@H](CC(C)C)NC(=O)OCc1ccccc1", 8.15],
  ["CC[C@H](NC(=O)[C@H](CC(C)C)NC(=O)OCc1ccccc1)C(=O)C(=O)NCCCN1CCOCC1", 4.39]
]}

----------
# experimentalSystem: Plasmepsin II (Plasmodium falciparum)
# Sequence (P46925 whole entry): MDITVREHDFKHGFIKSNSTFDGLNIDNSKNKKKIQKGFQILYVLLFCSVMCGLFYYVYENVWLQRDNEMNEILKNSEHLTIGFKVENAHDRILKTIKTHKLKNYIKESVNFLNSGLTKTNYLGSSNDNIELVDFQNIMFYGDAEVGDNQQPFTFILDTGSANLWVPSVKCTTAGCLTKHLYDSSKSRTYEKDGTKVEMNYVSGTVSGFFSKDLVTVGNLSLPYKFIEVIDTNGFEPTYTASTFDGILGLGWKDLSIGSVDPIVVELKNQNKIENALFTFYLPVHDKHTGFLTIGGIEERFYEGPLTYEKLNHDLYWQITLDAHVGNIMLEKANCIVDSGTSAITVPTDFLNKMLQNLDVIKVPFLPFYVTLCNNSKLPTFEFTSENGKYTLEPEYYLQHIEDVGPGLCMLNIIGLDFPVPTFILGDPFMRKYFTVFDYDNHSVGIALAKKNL
# experimentalDetails: Inhibitory concentration for Plasmodium falciparum plasmepsin-2.

{"columns": ["molecule", "IC50 [nM]"],
 "data": [
  ["CCCCNC(=O)C[C@H](O)[C@H](CC(C)C)NC(=O)[C@@H](NC(=O)Cc1ccc2ccccc2c1)C(C)CC (stereo partly specified)", 50]
]}
